# measured_on: Her2 exon 20 YVMA insertion (A775_G776ins YVMA) (Homo sapiens, UniProt P04626, INS775YVMA)
# Sequence (P04626 with tags, fused parts or gaps INS775YVMA): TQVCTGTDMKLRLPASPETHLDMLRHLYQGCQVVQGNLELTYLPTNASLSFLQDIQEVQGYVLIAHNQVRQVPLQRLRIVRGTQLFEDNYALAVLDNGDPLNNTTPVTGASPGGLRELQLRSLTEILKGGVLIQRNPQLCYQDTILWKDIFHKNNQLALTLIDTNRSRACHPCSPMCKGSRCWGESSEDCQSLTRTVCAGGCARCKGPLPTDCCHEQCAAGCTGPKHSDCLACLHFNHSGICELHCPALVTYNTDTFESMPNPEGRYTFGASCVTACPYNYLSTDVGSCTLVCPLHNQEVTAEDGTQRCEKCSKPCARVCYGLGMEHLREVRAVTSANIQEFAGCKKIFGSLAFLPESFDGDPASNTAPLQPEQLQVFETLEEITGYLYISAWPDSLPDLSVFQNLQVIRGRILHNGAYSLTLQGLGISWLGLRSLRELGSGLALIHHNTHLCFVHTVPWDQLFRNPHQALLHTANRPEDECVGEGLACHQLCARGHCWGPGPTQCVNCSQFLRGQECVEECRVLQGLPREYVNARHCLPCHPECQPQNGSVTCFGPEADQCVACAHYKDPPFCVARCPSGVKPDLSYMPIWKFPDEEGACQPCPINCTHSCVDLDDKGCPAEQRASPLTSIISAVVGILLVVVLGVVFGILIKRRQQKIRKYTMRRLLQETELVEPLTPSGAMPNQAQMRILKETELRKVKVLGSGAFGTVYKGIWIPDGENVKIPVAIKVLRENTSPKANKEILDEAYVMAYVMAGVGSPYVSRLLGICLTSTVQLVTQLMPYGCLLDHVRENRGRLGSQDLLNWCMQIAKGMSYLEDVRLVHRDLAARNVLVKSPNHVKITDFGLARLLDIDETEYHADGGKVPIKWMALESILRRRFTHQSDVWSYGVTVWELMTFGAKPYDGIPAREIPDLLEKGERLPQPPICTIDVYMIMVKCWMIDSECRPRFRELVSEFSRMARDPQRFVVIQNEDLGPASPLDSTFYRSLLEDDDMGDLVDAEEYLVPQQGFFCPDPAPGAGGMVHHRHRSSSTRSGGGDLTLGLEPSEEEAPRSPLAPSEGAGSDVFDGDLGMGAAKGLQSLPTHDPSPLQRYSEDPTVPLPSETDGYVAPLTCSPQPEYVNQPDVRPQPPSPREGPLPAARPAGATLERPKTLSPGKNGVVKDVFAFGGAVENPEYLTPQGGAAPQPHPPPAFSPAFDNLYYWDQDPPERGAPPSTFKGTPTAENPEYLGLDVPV
# assay_comment: Ba/F3-Her2 Exon20 YVMA cell anti-proliferative assay (CellTiter 96 MTS, 72 h)
# assay_conditions: Ba/F3-Her2 Exon20 YVMA cells
The compounds listed here are annotated with their IC50.

>>> measurement("C=CC(=O)Nc1cc(Nc2ncc(Cl)c(-c3cn4c5c(cccc35)CCC4)n2)c(OC)cc1O[C@H](COCC)CN(C)C")
"100 to 500 nM"
>>> measurement("C=CC(=O)Nc1cc(Nc2ncc(CCC(N)=O)c(-c3cn4c5c(cccc35)CCC4)n2)c(OC)cc1N(C)CCN(C)C")
"> 1000 nM"
>>> measurement("C=CC(=O)Nc1cc(Nc2ncc(C#N)c(-c3cn4c5c(cccc35)OCC4)n2)c(OC)cc1N1CC(N(C)C)C1")
"100 to 500 nM"

Input line: Quick one: IC50 of C=CC(=O)Nc1cc(Nc2ncc(-c3cnn(C)c3)c(-c3cn4c5c(cccc35)CCC4)n2)c(OC)cc1N(C)CCN(C)C ?
Output line: < 100 nM

Input line: Could you tell me which IC50 is on file for C=CC(=O)Nc1cc(Nc2ncc(SCCO)c(-c3cn4c5c(cccc35)CCC4)n2)c(OC)cc1N(C)CCN(C)C ?
Output line: 100 to 500 nM

Input line: For C=CC(=O)Nc1cc(Nc2ncc(-c3nc(C)no3)c(-c3cn4c5c(cccc35)CCC4)n2)c(OC)cc1N(C)CCN(C)C , what is its reported IC50?
Output line: < 100 nM

Input line: Bench note: what IC50 did C=CC(=O)Nc1cc(Nc2ncc(-c3cn[nH]c3)c(-c3cn4c5c(cccc35)CCC4)n2)c(OC)cc1N(C)CCN(C)C show?
Output line: < 100 nM

Input line: Any idea what its IC50 is? The compound is C=CC(=O)Nc1cc(Nc2ncc(C#N)c(-c3cn4c5c(cccc35)N(C)CC4)n2)c(OC)cc1N(C)CCN(C)C
Output line: 500 to 1000 nM

Input line: Need IC50, item C=CC(=O)Nc1cc(Nc2ncc(CCC3CCOC3)c(-c3cn4c5c(cccc35)CCC4)n2)c(OC)cc1N(C)CCN(C)C (stereo not drawn)
Output line: 100 to 500 nM

Data provenance is patent US20170166598A1.
